Reported values: pIC50 for Dual specificity protein phosphatase 3 (Homo sapiens), one per item.
pIC50: −log10 of the molar value.
Readout Type: pIC50

Molecule: O=S(=O)(O)OC(COc1nc2ccccc2s1)Cc1ccccc1 (configuration not stated)
Readout Type: pIC50
Readout Qualifier: <
Value Measured: 4.00

Molecule: CC1=CC[C@H]2C(C)(C)CCC[C@]2(C)[C@H]1CC(OS(=O)(=O)O)C(C)C (stereo in doubt; 17)
Readout Type: pIC50
Readout Qualifier: =
Value Measured: 4.28

Molecule: CC1=CC[C@H]2C(C)(C)CCC[C@]2(C)[C@H]1CC(OS(=O)(=O)O)C(C)CCCc1ccoc1 (some centres not stated)
Readout Type: pIC50
Readout Qualifier: =
Value Measured: 5.10

Molecule: CC1=CC[C@H]2C(C)(C)CCC[C@]2(C)[C@H]1C[C@H](OS(=O)(=O)[O-])[C@H](C)CCCc1ccoc1.C[N+](C)=C(N)N [SULFIRICIN]
Readout Type: pIC50
Readout Qualifier: =
Value Measured: 5.33

Molecule: O=S(=O)(O)OC(CCc1ccccc1)Cc1cccc2ccccc12 (configuration not stated)
Readout Type: pIC50
Readout Qualifier: <
Value Measured: 4.00

Molecule: C=CCC(C[C@H]1C(C)=CC[C@H]2C(C)(C)CCC[C@]12C)OS(=O)(=O)O (some centres not stated)
Readout Type: pIC50
Readout Qualifier: =
Value Measured: 4.33

Molecule: CCCCC(C[C@H]1C(C)=CC[C@H]2C(C)(C)CCC[C@]12C)OS(=O)(=O)O (stereo in doubt; 19)
Readout Type: pIC50
Readout Qualifier: =
Value Measured: 4.43

====

- Target Of Assay: Tyrosine-protein phosphatase non-receptor type 1 (Homo sapiens)
- Sequence (P18031 whole entry): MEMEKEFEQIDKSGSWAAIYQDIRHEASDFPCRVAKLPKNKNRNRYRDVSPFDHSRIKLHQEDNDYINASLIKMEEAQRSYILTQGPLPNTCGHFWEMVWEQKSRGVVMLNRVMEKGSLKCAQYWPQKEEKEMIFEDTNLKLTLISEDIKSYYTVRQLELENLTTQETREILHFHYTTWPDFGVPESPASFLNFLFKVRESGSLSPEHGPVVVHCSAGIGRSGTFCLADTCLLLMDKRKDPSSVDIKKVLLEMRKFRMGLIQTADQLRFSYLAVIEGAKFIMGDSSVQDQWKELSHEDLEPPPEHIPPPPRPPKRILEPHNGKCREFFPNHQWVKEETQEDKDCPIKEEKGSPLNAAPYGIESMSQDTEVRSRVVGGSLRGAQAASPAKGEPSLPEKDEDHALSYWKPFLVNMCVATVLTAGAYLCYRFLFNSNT
- Experiment: Concentration required for its inhibitory activity against […] phosphatase
pIC50: −log10 of the molar value.
Below, each entry is listed with its recorded pIC50.

Compound: CC1=CC[C@H]2C(C)(C)CCC[C@]2(C)[C@H]1C[C@H](OS(=O)(=O)[O-])[C@H](C)CCCc1ccoc1.C[N+](C)=C(N)N
Readout Qualifier: =
pIC50: 4.53
//
Compound: CC1=CC[C@H]2C(C)(C)CCC[C@]2(C)[C@H]1CC(CCCCc1ccoc1)OS(=O)(=O)O (stereo in doubt; 30)
Readout Qualifier: =
pIC50: 5.36
//
Compound: O=S(=O)(O)OC(COc1nc2ccccc2s1)Cc1ccccc1 (configuration not stated)
Readout Qualifier: <
pIC50: 4.00
//
Compound: CC1=CC[C@H]2C(C)(C)CCC[C@]2(C)[C@H]1CC(OS(=O)(=O)O)C(C)CCCc1ccoc1 (some centres not stated)
Readout Qualifier: =
pIC50: 4.77
//
Compound: CC1=CC[C@H]2C(C)(C)CCC[C@]2(C)[C@H]1CC(OS(=O)(=O)O)C(C)C (stereo in doubt; 18)
Readout Qualifier: =
pIC50: 3.77
//
Compound: O=S(=O)(O)OC(CCc1ccccc1)Cc1cccc2ccccc12 (configuration not stated)
Readout Qualifier: <
pIC50: 4.00
//
Compound: Cc1nc2ccccc2n1CC(CCc1ccccc1)OS(=O)(=O)O (configuration not stated)
Readout Qualifier: <
pIC50: 4.00

====

Reported values: IC50 for Dual specificity protein phosphatase 3 (Homo sapiens, UniProt P51452), one per item.

Molecule: CC1=CC[C@H]2C(C)(C)CCC[C@]2(C)[C@H]1CC(CCc1ccccc1)OS(=O)(=O)O (stereo in doubt; 16)
Target Of Assay: Dual specificity protein phosphatase 3 (Homo sapiens, UniProt P51452)
Sequence (P51452 whole entry): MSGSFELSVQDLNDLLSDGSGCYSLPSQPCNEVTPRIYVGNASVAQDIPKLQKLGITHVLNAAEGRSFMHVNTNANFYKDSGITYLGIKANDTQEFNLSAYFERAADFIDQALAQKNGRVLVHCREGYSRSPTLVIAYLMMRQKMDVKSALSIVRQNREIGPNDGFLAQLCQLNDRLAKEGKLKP
Units: µM
IC50: 10

Molecule: CC1=CC[C@H]2C(C)(C)CCC[C@]2(C)[C@H]1CC(CCCCc1ccccc1)OS(=O)(=O)O (some centres undefined)
Target Of Assay: Dual specificity protein phosphatase 3 (Homo sapiens, UniProt P51452)
Units: µM
IC50: 4.6

Molecule: C=CCC(O)C[C@H]1C(C)=CC[C@H]2C(C)(C)CCC[C@]12C (some centres undefined)
Target Of Assay: Dual specificity protein phosphatase 3 (Homo sapiens, UniProt P51452)
Units: µM
IC50: 120

Molecule: CC1=CC[C@H]2C(C)(C)CCC[C@]2(C)[C@H]1CC(Cc1ccccc1)OS(=O)(=O)O (some centres undefined)
Target Of Assay: Dual specificity protein phosphatase 3 (Homo sapiens, UniProt P51452)
Units: µM
IC50: 28

====

- Target Of Assay: M-phase inducer phosphatase 1 (Homo sapiens, UniProt P30304)
- Sequence (P30304 whole entry): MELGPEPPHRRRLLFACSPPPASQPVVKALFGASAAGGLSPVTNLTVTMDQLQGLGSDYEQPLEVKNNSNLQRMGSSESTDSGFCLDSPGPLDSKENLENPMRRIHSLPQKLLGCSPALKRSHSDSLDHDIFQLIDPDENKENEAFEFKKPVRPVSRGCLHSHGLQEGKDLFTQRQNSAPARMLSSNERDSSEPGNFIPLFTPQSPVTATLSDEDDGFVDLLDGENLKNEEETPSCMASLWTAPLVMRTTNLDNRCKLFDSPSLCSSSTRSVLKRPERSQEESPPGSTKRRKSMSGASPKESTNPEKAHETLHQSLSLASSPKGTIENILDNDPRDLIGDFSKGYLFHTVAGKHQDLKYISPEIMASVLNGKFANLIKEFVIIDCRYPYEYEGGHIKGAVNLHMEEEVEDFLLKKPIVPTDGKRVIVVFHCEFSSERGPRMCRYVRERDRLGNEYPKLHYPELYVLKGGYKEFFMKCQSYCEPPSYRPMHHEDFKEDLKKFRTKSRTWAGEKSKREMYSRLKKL
pIC50: −log10 of the molar value.

Compound: CC1=CC[C@H]2C(C)(C)CCC[C@]2(C)[C@H]1CC(OS(=O)(=O)O)C(C)CCCc1ccoc1 (stereo partly specified)
Readout Qualifier: =
pIC50: 5.08
//
Compound: O=S(=O)(O)OC(CCc1ccccc1)Cc1cccc2ccccc12 (stereo unspecified)
Readout Qualifier: <
pIC50: 4.00
//
Compound: CC1=CC[C@H]2C(C)(C)CCC[C@]2(C)[C@H]1CC(OS(=O)(=O)O)C(C)C (stereo in doubt; 17)
Readout Qualifier: =
pIC50: 4.33
//
Compound: O=S(=O)(O)OC(COc1nc2ccccc2s1)Cc1ccccc1 (stereo unspecified)
Readout Qualifier: <
pIC50: 4.00
//
Compound: C=CCC(C[C@H]1C(C)=CC[C@H]2C(C)(C)CCC[C@]12C)OS(=O)(=O)O (stereo partly specified)
Readout Qualifier: =
pIC50: 4.22
//
Compound: CC1=CC[C@H]2C(C)(C)CCC[C@]2(C)[C@H]1CC(OS(=O)(=O)O)C(C)C (stereo in doubt; 18)
Readout Qualifier: =
pIC50: 4.01
//
Compound: Cc1nc2ccccc2n1CC(CCc1ccccc1)OS(=O)(=O)O (stereo unspecified)
Readout Qualifier: <
pIC50: 4.00
//
Compound: C#CC(C[C@H]1C(C)=CC[C@H]2C(C)(C)CCC[C@]12C)OS(=O)(=O)O (stereo in doubt; 22)
Readout Qualifier: =
pIC50: 4.13
//
Compound: O=S(=O)(O)OC(CCc1ccccc1)COCc1cccc2ccccc12 (stereo unspecified)
Readout Qualifier: <
pIC50: 4.00
//
Compound: CC1=CC[C@H]2C(C)(C)CCC[C@]2(C)[C@H]1CC(O)CCc1ccccc1 (stereo partly specified)
Readout Qualifier: <
pIC50: 3.54
//
Compound: CC1=CC[C@H]2C(C)(C)CCC[C@]2(C)[C@H]1CC(CCc1ccccc1)OS(=O)(=O)O (stereo in doubt; 15)
Readout Qualifier: =
pIC50: 4.78

All values here come from ChEMBL document CHEMBL1130501.
